Where a name gives a salt, the structure may show the parent alone.
Quick record of Ki values for UniProt:P61169.
Sequence (P61169 whole entry): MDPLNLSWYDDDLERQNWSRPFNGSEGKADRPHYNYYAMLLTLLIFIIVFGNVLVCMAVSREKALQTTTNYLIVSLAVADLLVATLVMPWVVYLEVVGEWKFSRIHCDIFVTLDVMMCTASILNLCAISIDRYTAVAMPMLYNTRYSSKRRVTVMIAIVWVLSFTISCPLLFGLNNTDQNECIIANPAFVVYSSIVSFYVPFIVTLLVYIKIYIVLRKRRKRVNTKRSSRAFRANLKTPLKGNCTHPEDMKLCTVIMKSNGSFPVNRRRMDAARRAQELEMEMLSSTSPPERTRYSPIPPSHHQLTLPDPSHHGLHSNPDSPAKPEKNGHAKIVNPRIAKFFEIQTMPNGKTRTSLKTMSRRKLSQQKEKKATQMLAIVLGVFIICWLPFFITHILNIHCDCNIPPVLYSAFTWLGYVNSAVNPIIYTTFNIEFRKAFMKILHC

// below: answered molecules
CC(NC(C)(C)C)C(=O)c1cccc(Cl)c1 (stereo not drawn) [BUPROPION HYDROCHLORIDE] : > 10 µM
Fc1ccc(C(OCCN2CCN(CCCc3ccccc3)CC2)c2ccc(F)cc2)cc1 : 0.27 µM

Consider the additional molecule presented here.
Entry CN(C)CCCC1(c2ccc(F)cc2)OCc2cc(C#N)ccc21 (stereo not drawn) [CITALOPRAM HYDROBROMIDE] : Ki on UniProt:P61169 = > 10 µM

====

Measured pKi of individual entries
biological target: Sodium-dependent serotonin transporter (Rattus norvegicus)
Sequence (P31652 whole entry): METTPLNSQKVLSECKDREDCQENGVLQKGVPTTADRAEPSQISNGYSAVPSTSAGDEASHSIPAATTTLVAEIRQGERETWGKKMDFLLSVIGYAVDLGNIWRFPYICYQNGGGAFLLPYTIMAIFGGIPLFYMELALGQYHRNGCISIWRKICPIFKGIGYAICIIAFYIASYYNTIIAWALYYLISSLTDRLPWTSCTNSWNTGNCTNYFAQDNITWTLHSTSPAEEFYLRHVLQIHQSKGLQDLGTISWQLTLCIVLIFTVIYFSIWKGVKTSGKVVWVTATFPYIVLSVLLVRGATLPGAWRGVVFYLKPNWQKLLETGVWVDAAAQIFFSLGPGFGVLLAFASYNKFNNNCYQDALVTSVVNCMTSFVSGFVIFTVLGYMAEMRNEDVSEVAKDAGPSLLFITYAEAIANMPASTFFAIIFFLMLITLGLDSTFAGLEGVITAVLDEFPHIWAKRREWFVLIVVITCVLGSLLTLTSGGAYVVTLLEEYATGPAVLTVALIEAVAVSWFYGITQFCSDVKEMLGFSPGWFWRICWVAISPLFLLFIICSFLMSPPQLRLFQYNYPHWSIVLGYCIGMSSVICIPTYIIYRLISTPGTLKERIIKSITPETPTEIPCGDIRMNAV
Quick note: pKi means taking -log10 of the concentration in moles per liter.

NCC(O)c1ccc(O)c(O)c1 (stereo not drawn) [Noradrenaline,(+)] : 6.00
NCCc1ccc(O)c(O)c1 : 6.00

Sodium-dependent serotonin transporter (Rattus norvegicus) data for `COC(=O)[C@@H](c1ccccc1)[C@@H]1CCCCN1` ; its pKi: 6.00

====

molecular target: Histamine H1 receptor (Rattus norvegicus, UniProt P31390)
Sequence (P31390 whole entry): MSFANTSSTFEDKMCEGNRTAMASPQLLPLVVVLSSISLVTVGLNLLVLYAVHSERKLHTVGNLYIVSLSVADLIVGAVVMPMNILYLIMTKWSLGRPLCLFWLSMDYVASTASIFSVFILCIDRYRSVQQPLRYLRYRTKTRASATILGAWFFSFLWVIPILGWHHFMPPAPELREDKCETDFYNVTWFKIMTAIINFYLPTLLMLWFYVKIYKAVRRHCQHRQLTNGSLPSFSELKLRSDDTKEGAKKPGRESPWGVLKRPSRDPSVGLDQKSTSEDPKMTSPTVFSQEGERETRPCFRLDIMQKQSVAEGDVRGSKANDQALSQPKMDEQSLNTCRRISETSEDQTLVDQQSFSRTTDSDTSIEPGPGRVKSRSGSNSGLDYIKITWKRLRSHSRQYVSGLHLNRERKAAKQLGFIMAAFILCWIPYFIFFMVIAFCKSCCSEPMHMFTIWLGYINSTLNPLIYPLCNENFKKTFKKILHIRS
measured property: Ki (nM)
Return type: number; implicit unit nM.

Item `Fc1ccc(C(OCCN2CCN(CCCc3ccccc3)CC2)c2ccc(F)cc2)cc1` ; assay system Histamine H1 receptor (Rattus norvegicus, UniProt P31390); Ki reported as 18

====

Biological target: Muscarinic acetylcholine receptor M2 (Rattus norvegicus)
Sequence (P10980 whole entry): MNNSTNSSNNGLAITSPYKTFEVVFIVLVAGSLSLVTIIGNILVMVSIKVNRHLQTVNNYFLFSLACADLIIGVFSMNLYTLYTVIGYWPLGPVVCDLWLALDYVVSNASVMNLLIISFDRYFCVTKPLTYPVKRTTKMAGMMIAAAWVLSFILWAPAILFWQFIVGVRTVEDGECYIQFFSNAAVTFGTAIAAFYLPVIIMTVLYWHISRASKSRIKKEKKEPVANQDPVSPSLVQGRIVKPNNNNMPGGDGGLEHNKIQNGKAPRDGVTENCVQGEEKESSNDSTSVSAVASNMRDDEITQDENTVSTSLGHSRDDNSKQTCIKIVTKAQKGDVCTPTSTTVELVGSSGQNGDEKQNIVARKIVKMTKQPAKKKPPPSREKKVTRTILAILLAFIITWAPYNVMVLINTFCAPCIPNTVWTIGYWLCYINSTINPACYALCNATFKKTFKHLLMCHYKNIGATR
pKi: −log10 of the molar value. Where a name gives a salt, the structure may show the parent alone.
measured property: pKi

Take a look at these entries with their results.
CN(C)CCCC1(c2ccc(F)cc2)OCc2cc(C#N)ccc21 (stereo not given) [CITALOPRAM HYDROBROMIDE] : < 5.00
Fc1ccc(C(OCCN2CCN(CCCc3ccccc3)CC2)c2ccc(F)cc2)cc1 : < 5.00
CN1Cc2c(N)cccc2[C@H](c2ccccc2)C1 : < 5.00
CC(NC(C)(C)C)C(=O)c1cccc(Cl)c1 (stereo not given) [BUPROPION HYDROCHLORIDE] : < 5.00

Continue with the next molecule.
Readout pKi for `CN(C)CCCN1c2ccccc2CCc2ccccc21` , test system Muscarinic acetylcholine receptor M2 (Rattus norvegicus), was 5.64

====

Structures can show the parent of a compound that is named as a salt.
Record type: Ki measurement. Applies to: 5-hydroxytryptamine receptor 1A (Rattus norvegicus)

Solved cases below.
Fc1ccc(C(OCCN2CCN(CCCc3ccccc3)CC2)c2ccc(F)cc2)cc1 : 3.6 µM
CN(C)CCCC1(c2ccc(F)cc2)OCc2cc(C#N)ccc21 (stereo not drawn) [CITALOPRAM HYDROBROMIDE] : > 10 µM

Continue with the next compound.
Ki value, target or system 5-hydroxytryptamine receptor 1A (Rattus norvegicus), for `CN1Cc2c(N)cccc2[C@H](c2ccccc2)C1` : > 10 µM

The measured values listed here are drawn from BindingDB's records for doi:10.1016/0014-2999(89)90363-4.
